Data provenance: patent US20250214991A1

target.under.test: IKZF2 (Homo sapiens (Human), UniProt Q96SW2+Q9UKS7)
Sequence (Q9UKS7 whole entry): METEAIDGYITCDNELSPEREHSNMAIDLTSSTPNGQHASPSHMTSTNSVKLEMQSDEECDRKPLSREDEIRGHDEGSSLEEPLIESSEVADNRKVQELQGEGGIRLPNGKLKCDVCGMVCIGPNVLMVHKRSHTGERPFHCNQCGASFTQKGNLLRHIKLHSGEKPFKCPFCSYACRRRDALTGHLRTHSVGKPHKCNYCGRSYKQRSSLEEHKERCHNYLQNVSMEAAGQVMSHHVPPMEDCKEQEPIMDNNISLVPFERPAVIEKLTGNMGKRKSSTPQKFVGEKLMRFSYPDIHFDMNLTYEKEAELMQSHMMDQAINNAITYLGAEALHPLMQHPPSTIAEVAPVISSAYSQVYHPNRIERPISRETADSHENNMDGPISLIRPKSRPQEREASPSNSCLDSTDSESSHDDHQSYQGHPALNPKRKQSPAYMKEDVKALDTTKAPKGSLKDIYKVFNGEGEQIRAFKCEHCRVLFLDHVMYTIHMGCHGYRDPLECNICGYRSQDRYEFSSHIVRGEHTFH
Sequence (Q96SW2 whole entry): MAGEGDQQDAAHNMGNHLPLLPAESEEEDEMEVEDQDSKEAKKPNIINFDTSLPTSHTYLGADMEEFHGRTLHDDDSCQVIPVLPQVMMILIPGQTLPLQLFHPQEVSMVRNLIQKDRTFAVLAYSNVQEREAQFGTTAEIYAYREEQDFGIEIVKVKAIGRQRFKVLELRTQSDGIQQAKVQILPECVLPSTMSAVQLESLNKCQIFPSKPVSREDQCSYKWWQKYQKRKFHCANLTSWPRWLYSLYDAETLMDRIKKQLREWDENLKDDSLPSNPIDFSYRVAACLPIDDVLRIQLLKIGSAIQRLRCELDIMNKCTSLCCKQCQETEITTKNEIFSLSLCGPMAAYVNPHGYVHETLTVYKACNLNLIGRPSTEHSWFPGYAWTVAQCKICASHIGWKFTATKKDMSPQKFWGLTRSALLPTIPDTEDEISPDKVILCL
Sequence (Q16531 2-1140 partner): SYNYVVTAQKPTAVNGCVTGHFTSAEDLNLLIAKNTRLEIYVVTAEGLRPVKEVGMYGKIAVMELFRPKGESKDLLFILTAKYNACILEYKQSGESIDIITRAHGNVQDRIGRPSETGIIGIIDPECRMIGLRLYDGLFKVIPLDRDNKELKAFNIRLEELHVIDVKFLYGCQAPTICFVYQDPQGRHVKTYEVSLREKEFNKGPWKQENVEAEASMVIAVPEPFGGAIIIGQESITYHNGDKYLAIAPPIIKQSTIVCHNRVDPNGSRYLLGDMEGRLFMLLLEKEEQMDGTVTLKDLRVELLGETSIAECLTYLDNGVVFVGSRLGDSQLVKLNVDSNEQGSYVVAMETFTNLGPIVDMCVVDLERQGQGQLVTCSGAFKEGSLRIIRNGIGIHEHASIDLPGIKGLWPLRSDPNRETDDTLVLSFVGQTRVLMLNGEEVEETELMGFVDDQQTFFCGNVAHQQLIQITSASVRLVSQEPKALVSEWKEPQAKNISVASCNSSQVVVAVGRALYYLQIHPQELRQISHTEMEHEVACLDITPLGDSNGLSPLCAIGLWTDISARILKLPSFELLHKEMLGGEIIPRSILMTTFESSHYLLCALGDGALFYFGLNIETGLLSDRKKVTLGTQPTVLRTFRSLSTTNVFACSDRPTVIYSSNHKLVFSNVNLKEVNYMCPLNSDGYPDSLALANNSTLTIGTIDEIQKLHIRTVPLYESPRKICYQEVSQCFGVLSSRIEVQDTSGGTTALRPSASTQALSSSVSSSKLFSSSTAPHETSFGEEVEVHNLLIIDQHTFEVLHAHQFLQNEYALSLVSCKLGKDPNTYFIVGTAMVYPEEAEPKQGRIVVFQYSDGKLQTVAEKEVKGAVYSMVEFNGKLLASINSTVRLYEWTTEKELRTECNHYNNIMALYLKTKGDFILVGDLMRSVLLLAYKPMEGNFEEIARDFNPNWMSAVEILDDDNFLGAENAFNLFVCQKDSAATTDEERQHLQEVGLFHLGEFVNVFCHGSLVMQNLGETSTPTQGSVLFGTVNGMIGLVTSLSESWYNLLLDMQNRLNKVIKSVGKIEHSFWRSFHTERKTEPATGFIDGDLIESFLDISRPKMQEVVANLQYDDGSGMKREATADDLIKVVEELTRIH
assay.procedure: In vitro IKZF2 HiBit Assay (HEK293T Flp-in-HiBiT cells)
Assay type: cell-based
assay.setup: HEK-293T; HEK293T Flp-in-HiBiT cells, 6 hrs incubation; read-out: IKZF2 HiBit Dmax (%)
measured.quantity: Dmax

compound | result
O=C1CCC(N2Cc3cc(-c4cc(CN5CCCC5)c5c(C(F)(F)F)nn(C6COC6)c5n4)ccc3C2=O)C(=O)N1 (stereo not shown) | 40 to 60%
O=C1CCC(N2Cc3cc(-c4nc5[nH]ccc5c(CN5CCCC5)c4Cl)ccc3C2=O)C(=O)N1 (stereo not shown) | > 80%
O=C1CCC(N2Cc3cc(-c4cc(CN5CCCC5)c5c(ccn5C5CC5)n4)ccc3C2=O)C(=O)N1 (stereo not shown) | 60 to 80%
CN1CC(n2ccc3c(CN4CCCC4)cc(-c4ccc5c(c4)CN(C4CCC(=O)NC4=O)C5=O)nc32)C1 (stereo not shown) | > 80%

* * *

Dmax reference
target.under.test: IKZF2 (Homo sapiens (Human), UniProt Q96SW2+Q9UKS7)
assay.procedure: In vitro IKZF2 HiBit Assay (HEK293T Flp-in-HiBiT cells)
Assay type: cell-based
assay.setup: HEK-293T; HEK293T Flp-in-HiBiT cells, 6 hrs incubation; read-out: IKZF2 HiBit Dmax (%)

compound | target.under.test | Dmax
O=C1CCC(N2Cc3c(ccc(-c4cc(CN5CCCC5)c5cc[nH]c5n4)c3F)C2=O)C(=O)N1 (stereo not drawn) [Example 126] | IKZF2 (Homo sapiens (Human), UniProt Q96SW2+Q9UKS7) | > 80%
O=C1CCC(N2Cc3cc(-c4cc(CN5CCCC5)cc5cncn45)ccc3C2=O)C(=O)N1 (stereo not drawn) [Example 1] | IKZF2 (Homo sapiens (Human), UniProt Q96SW2+Q9UKS7) | 60 to 80%
O=C1CCC(N2Cc3cc(-c4cc(CN5CCCC5)c5nccc(NC6CC6)c5n4)ccc3C2=O)C(=O)N1 (stereo not drawn) [Example 244] | IKZF2 (Homo sapiens (Human), UniProt Q96SW2+Q9UKS7) | 40 to 60%
O=C1CCC(N2Cc3cc(-c4cc(CN5CCCC5)c5ccn(C6CC(F)(F)C6)c5n4)ccc3C2=O)C(=O)N1 (stereo not drawn) [Example 274] | IKZF2 (Homo sapiens (Human), UniProt Q96SW2+Q9UKS7) | > 80%
Cn1ccc2c(CN3CCC4(CCC4)CC3)cc(-c3ccc4c(c3)CN(C3CCC(=O)NC3=O)C4=O)nc21 (stereo not drawn) [Example 69] | IKZF2 (Homo sapiens (Human), UniProt Q96SW2+Q9UKS7) | > 80%
O=C1CCC(N2Cc3cc(-c4cc(CN5CCCC5)c5ccn(CCOCc6ccccc6)c5n4)ccc3C2=O)C(=O)N1 (stereo not drawn) [Example 130] | IKZF2 (Homo sapiens (Human), UniProt Q96SW2+Q9UKS7) | 40 to 60%

* * *

target.under.test: IKZF2 (Homo sapiens (Human), UniProt Q96SW2+Q9UKS7)
assay.procedure: In vitro IKZF2 HiBit Assay (HEK293T Flp-in-HiBiT cells)
Format: cell-based
assay.setup: HEK293T Flp-in-HiBiT cells, 6 hrs incubation; read-out: IKZF2 HiBit DC50
Protocol: In Vitro IKZF2 HiBit Assay The HiBiT protein tagging system was applied to modified HEK293T Flp-in-HiBiT cells (polyclone) via a CRISPR/Cas9-mediated insertion of the HiBiT peptide tag (Promega™) to the N-terminus of the IKZF2 gene locus (Neon™ transfection system). Test and reference compounds are diluted from 1 mM at 3 folds for 11 doses. […] The amount of Nano-Glo® HiBiT lytic reagent needed to perform the desired experiments is calculated. […] After briefly centrifuge, the plate is read on Envision. […]
// DC50 lookup, one value per entry

compound | DC50
CC(C)Oc1n[nH]c2c(CN3CCCC3)cc(-c3ccc4c(c3)CN(C3CCC(=O)NC3=O)C4=O)nc12 (stereo not shown) | < 1 nM
O=C1CCC(N2Cc3cc(-c4cc(CN5CCCC5)c5c(n4)CCCC5)ccc3C2=O)C(=O)N1 (stereo not shown) | < 1 nM
O=C1CCC(N2Cc3cc(-c4cc(CN5CCCC5)c5ccn(C6CCOCC6)c5n4)ccc3C2=O)C(=O)N1 (stereo not shown) | 1 to 10 nM
O=C1CCC(N2Cc3cc(-c4cc(CN5CCCC5)c5nccc(C6CCC6)c5n4)ccc3C2=O)C(=O)N1 (stereo not shown) | 10 to 100 nM

* * *

target.under.test: IKZF2 (Homo sapiens (Human), UniProt Q96SW2+Q9UKS7)
assay.procedure: In vitro IKZF2 FACS Assay in Jurkat cells
Format: cell-based
assay.setup: 24 hrs, half maximal degradation concentration

compound | target.under.test | DC50
O=C1CCC(N2Cc3cc(-c4cc(CN5CCC6(CC5)COC6)cc5cncn45)ccc3C2=O)C(=O)N1 (stereo not shown) | IKZF2 (Homo sapiens (Human), UniProt Q96SW2+Q9UKS7) | 0.001 to 0.01 µM
O=C1CCC(N2Cc3c(ccc(-c4cc(CN5CCCC5)c5ccn(C6CS(=O)(=O)C6)c5n4)c3Cl)C2=O)C(=O)N1 (stereo not shown) | IKZF2 (Homo sapiens (Human), UniProt Q96SW2+Q9UKS7) | 0.001 to 0.01 µM
Nc1n[nH]c2c(CN3CCC4(CC3)COC4)cc(-c3ccc4c(c3)CN(C3CCC(=O)NC3=O)C4=O)nc12 (stereo not shown) | IKZF2 (Homo sapiens (Human), UniProt Q96SW2+Q9UKS7) | 0.1 to 1 µM
CC(C)Nc1n[nH]c2c(CN3CCCC3)cc(-c3ccc4c(c3F)CN(C3CCC(=O)NC3=O)C4=O)nc12 (stereo not shown) | IKZF2 (Homo sapiens (Human), UniProt Q96SW2+Q9UKS7) | 0.001 to 0.01 µM
CC1(C)CCCN1Cc1cc(-c2ccc3c(c2)CN(C2CCC(=O)NC2=O)C3=O)nc2c1ccn2C1COC1 (stereo not shown) | IKZF2 (Homo sapiens (Human), UniProt Q96SW2+Q9UKS7) | 0.01 to 0.1 µM
O=C1CCC(N2Cc3cc(-c4cc(CN5CCCCC56CC6)c5ccn(C6COC6)c5n4)ccc3C2=O)C(=O)N1 (stereo not shown) | IKZF2 (Homo sapiens (Human), UniProt Q96SW2+Q9UKS7) | 0.01 to 0.1 µM
Nc1n[nH]c2c(CN3CCC(F)CC3)cc(-c3ccc4c(c3)CN(C3CCC(=O)NC3=O)C4=O)nc12 (stereo not shown) | IKZF2 (Homo sapiens (Human), UniProt Q96SW2+Q9UKS7) | 0.01 to 0.1 µM

* * *

target.under.test: IKZF2 (Homo sapiens (Human), UniProt Q96SW2+Q9UKS7)
assay.procedure: In vitro IKZF2 Western Blot Assay in Jurkat cells
Type: cell-based
assay.setup: 24 hrs, 10 μM, read-out: IKZF2 degradation (%) @ μM 10
Listed here are compounds together with their documented inhibition at 10 µM.

compound | inhibition at 10 µM
O=C1CCC(N2Cc3cc(-c4cc(CN5CCCCC5)cn5ccnc45)ccc3C2=O)C(=O)N1 (stereo not drawn) [Example 33] | > 50%
O=C1CCC(N2Cc3cc(-c4cc(CNCc5ccccc5Cl)cn5ccnc45)ccc3C2=O)C(=O)N1 (stereo not drawn) [Example 38] | < 30%
Cc1ccccc1CCNCc1cc(-c2ccc3c(c2)CN(C2CCC(=O)NC2=O)C3=O)c2nccn2c1 (stereo not drawn) [Example 42] | 30 to 50%

* * *

Measured DC50, listed per entry for reference.
target.under.test: IKZF2 (Homo sapiens (Human), UniProt Q96SW2+Q9UKS7)
assay.procedure: In vitro IKZF2 FACS Assay in Jurkat cells
Type: cell-based
assay.setup: 24 hrs, half maximal degradation concentration

molecule | DC50
CC(C)Nc1n[nH]c2c(CN3CC4(CCOCC4)C3)cc(-c3ccc4c(c3F)CN(C3CCC(=O)NC3=O)C4=O)nc12 (stereo not drawn) | 1 to 10 nM
O=C1CCC(N2Cc3cc(-c4nc(CN5CCCC5)c5ccn(C6COC6)c5n4)ccc3C2=O)C(=O)N1 (stereo not drawn) | 10 to 100 nM
O=C1CCC(N2Cc3cc(-c4nc(CN5CCCC5)c5ccn(C6CS(=O)(=O)C6)c5n4)ccc3C2=O)C(=O)N1 (stereo not drawn) | 10 to 100 nM
O=C1CCC(N2Cc3cc(-c4cc(CNCc5ccccc5)cc5cncn45)ccc3C2=O)C(=O)N1 (stereo not drawn) | 10 to 100 nM
O=C1CCC(N2Cc3cc(-c4cc(CN5CCCC5)c5ccn(C6CCOC6)c5n4)ccc3C2=O)C(=O)N1 (stereo not drawn) | 10 to 100 nM
O=C1CCC(N2Cc3cc(-c4cc(CN5CCCC5)c5[nH]ncc5n4)ccc3C2=O)C(=O)N1 (stereo not drawn) | 1 to 10 nM
O=C1CCC(N2Cc3cc(-c4cc(CN5CCOCC5)cc5cncn45)ccc3C2=O)C(=O)N1 (stereo not drawn) | > 1000 nM
CC(C)Nc1n[nH]c2c(CN3CCCC3)cc(-c3ccc4c(c3Cl)CN(C3CCC(=O)NC3=O)C4=O)nc12 (stereo not drawn) | 10 to 100 nM
CN(Cc1cc(-c2ccc3c(c2)CN(C2CCC(=O)NC2=O)C3=O)n2cncc2c1)C(C)(C)c1ccccc1 (stereo not drawn) | 100 to 1000 nM
